Listed below: AUC values for each entry.
Assay: PK experiments in Sprague-Dawley rats
Details: Sprague-Dawley, rat, in vivo, iv, 10 mg/kg
State just the number; it will be interpreted in ng·h/mL.

[[record]]
molecule = "CC1(C)[C@@H]2[C@@H](C(=O)N[C@H](C=O)C[C@@H]3CCNC3=O)N(C(=O)COc3ccc(OC(F)(F)F)cc3)C[C@@H]21"
endpoint_label = "AUC"
assay_result = 7430


Reported AUC, compound O=C[C@H](C[C@@H]1CCNC1=O)NC(=O)[C@@H]1[C@H]2CCC[C@H]2CN1C(=O)COc1ccc(Cl)cc1Cl : ____
9770

* * *

Experiment: PK experiments in Sprague-Dawley rats
Conditions: Sprague-Dawley, rat, in vivo, po, 20 mg/kg
bioavailability values, listed per item
Remember to quote the unit after the number.

[[record]]
molecule = "O=C[C@H](C[C@@H]1CCNC1=O)NC(=O)[C@@H]1[C@H]2CCC[C@H]2CN1C(=O)COc1ccc(Cl)cc1Cl"
endpoint_label = "bioavailability"
assay_result = "14.6%"


Alright, here's another compound for you.
I have this compound here, CC1(C)[C@@H]2[C@@H](C(=O)N[C@H](C=O)C[C@@H]3CCNC3=O)N(C(=O)COc3ccc(OC(F)(F)F)cc3)C[C@@H]21 , and I need its recorded bioavailability.
11.2%

* * *

In this section, each of the compounds is paired with its reported AUC.
Assay: PK experiments in Sprague-Dawley rats
Settings: Sprague-Dawley, rat, in vivo, ip, 20 mg/kg
Numbers only here, please. The scale is ng·h/mL.

[[record]]
molecule = "CC1(C)[C@@H]2[C@@H](C(=O)N[C@H](C=O)C[C@@H]3CCNC3=O)N(C(=O)COc3ccc(OC(F)(F)F)cc3)C[C@@H]21"
assay_result = 11600


Please find the next compound below.
Would you kindly share the measured AUC for O=C[C@H](C[C@@H]1CCNC1=O)NC(=O)[C@@H]1[C@H]2CCC[C@H]2CN1C(=O)COc1ccc(Cl)cc1Cl ?
14900

* * *

Experiment: PK experiments in Sprague-Dawley rats
Conditions: Sprague-Dawley, rat, in vivo, ip, 20 mg/kg
ENDPOINT LABEL: half-life (h)
Quick reminder: number only, in h, skip the unit.

Recorded half-life of O=C[C@H](C[C@@H]1CCNC1=O)NC(=O)[C@@H]1[C@H]2CCC[C@H]2CN1C(=O)COc1ccc(Cl)cc1Cl , please.
3.88

* * *

Test: PK experiments in Sprague-Dawley rats
Conditions: Sprague-Dawley, rat, in vivo, po, 20 mg/kg
Listed here are compounds together with their documented AUC.

[[record]]
compound = "O=C[C@H](C[C@@H]1CCNC1=O)NC(=O)[C@@H]1[C@H]2CCC[C@H]2CN1C(=O)COc1ccc(Cl)cc1Cl [MI-30]"
assay_result = "2840 ng·h/mL"


Now examine the next entry.
Give the measured AUC of CC1(C)[C@@H]2[C@@H](C(=O)N[C@H](C=O)C[C@@H]3CCNC3=O)N(C(=O)COc3ccc(OC(F)(F)F)cc3)C[C@@H]21 [MI-09] .
1660 ng·h/mL
